# TARGET: Cytochrome P450 2C19 (Homo sapiens) (UniProt P33261)
# Sequence (P33261 whole entry, looked up): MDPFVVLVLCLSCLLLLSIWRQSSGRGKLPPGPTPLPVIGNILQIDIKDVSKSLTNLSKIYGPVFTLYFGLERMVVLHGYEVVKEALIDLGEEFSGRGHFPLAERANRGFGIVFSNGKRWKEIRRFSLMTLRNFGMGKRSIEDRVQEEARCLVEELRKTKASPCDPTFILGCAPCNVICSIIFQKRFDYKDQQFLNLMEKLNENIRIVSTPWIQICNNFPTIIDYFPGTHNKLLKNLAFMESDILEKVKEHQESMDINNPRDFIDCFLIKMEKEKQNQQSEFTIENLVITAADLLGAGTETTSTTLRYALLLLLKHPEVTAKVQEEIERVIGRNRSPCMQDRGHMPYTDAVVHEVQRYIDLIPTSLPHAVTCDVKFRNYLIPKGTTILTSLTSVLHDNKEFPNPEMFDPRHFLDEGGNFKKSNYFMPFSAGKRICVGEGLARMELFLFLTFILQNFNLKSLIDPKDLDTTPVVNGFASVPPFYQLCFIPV
# TEST_DETAILS: Cytochrome P450 Family 2 Subfamily C Member 19 (CYP2C19) small molecule antagonists: luciferase reporter qHTS assay (AID 1671197); note: nearly all actives have a fitted effect of over 65% in size; note: potency is the fitted concentration of half-maximal effect
# PROTOCOL_CONDITIONS: P450-Glo CYP2C19 enzyme, luciferin luminescence, 1 h; series mostly up to 115 µM
Inconclusive results are not listed. Active and inactive are the calls of the source. Calls come from the whole dose curve; as a rule, active = well fitted inhibition curve with a large enough effect in the repeat runs; inconclusive = weak or mixed curves; inactive = no such curve, though single readings can be large or run the other way.
MEASURED_QUANTITY: Potency

Recorded results for 8 molecules are shown here.
# MOLECULE, Potency
rows = [
    ("CC(Cl)C(Cl)Cl (stereo unspecified)", "31.2 µM (active)"),
    ("CC(C)C(OC(=O)c1ccccc1)C(C)(C)COC(=O)c1ccccc1 (stereo unspecified)", "6.33 µM (active)"),
    ("Cc1ccccc1N1C(=O)c2cc(S(N)(=O)=O)c(Cl)cc2NC1C (stereo unspecified)", "inactive"),
    ("CCCCC/C(=C\\c1ccccc1)CO", "1.76 µM (active)"),
    ("O=C(/C=C/c1ccccc1)OCCCc1ccccc1", "39.9 µM (active)"),
    ("c1cnc2c(n1)CCCC2", "inactive"),
    ("C=CC(=C)CCCC(C)(C)OC(C)=O", "inactive"),
    ("Cc1nc2ccccc2s1", "80.2 µM (active)"),
]

For each of the molecules below, note its Potency.
1. CCOC(=O)[C@@H](C)Oc1ccc(Oc2nc3ccc(Cl)cc3o2)cc1
2. CCc1c2c(nc3ccc(OC(=O)N4CCC(N5CCCCC5)CC4)cc13)-c1cc3c(c(=O)n1C2)COC(=O)[C@]3(O)CC
3. O=C(O)c1ccccc1NCCc1ccccc1
4. Oc1ccc(Nc2ccccc2)cc1

Result:
79.6 µM (active)
inactive
inactive
20 µM (active)

For each of the molecules below, note its Potency.
1. NC(=O)N(O)[C@@H]1COc2cc(OCc3ccccc3)ccc21
2. C[N+]1(C)CCC(=C(c2ccccc2)c2ccccc2)CC1
3. CC(C)CCCCCCOC(=O)CCCCC(=O)OCCCCCCC(C)C

Result:
["5.03 µM (active)", "inactive", "inactive"]

For each of the molecules below, note its Potency.
1. C=CC(C)(C)CC(=O)OC
2. CC(CCc1ccc2c(c1)OCO2)NN (stereo unspecified)

Result:
1. 35.7 µM (active)
2. 38.9 µM (active)

For each of the molecules below, note its Potency.
1. COc1ccc(C(=O)c2cccc(O)c2)c(OC)c1
2. O=[N+]([O-])c1cccc(S(=O)(=O)NCCNS(=O)(=O)c2cccc([N+](=O)[O-])c2)c1
3. ON(Cc1ccccc1)Cc1ccccc1
4. Cc1c(C(=O)NN2CCCCC2)nn(-c2ccc(Cl)cc2Cl)c1-c1ccc(Cl)cc1

Result:
1: 3.55 µM (active); 2: 3.09 µM (active); 3: 7.1 µM (active); 4: inactive
